Assay: inhibitors of HIV fusion peptide binding, primary screen, biochemical, uHTS, fluorescence dequenching (AID 1986)
Details: cell-free peptide binding, 30 min, at 20 µM, hits give high values
Hit rate of the full screen: of about 290,000 compounds, about 890 (0.31%) were called active. The sample holds actives, similar compounds and a random draw of the others, so the mix is not that of the screen.
Hi there, I'd appreciate the recorded inhibition for every entry that follows.
Numbers only, in %.

Sample answers from the record:
* O=c1cc(C(F)(F)F)nc(-c2cccnc2)[nH]1 | -1.2
* CCOc1cc(/C=C2\SC(=Nc3ccc(F)cc3)N(c3ccc(F)cc3)C2=O)ccc1OCC(=O)O | 41.5
* O=C(CSc1nnc(SCc2ccccc2)s1)N/N=C/C=C\c1ccco1 | 51.3
* Cc1ccc(/C=C2\SC(=S)N(C(Cc3ccccc3)C(=O)O)C2=O)cc1 (stereo not drawn) | 53.9
* CCOc1ccc(/C=C2\SC(=S)N(C(C(=O)O)c3ccccc3)C2=O)cc1OC (stereo not drawn) | 12.1

Provide each entry's inhibition from the list below.
1. COc1ccc(/C=C2\SC(=S)N(C(Cc3ccccc3)C(=O)O)C2=O)cc1 (stereo not drawn)
2. O=C(/C=C/c1cc([N+](=O)[O-])ccc1OC(F)F)Nc1cccc2ccccc12
3. c1ccc(-c2nc3ccccc3c3nncn23)cc1
4. O=C(CSc1nnc(SCc2ccccc2)s1)N/N=C/C=C/c1ccco1
5. CN(C)c1ccc(N=Nc2nc3ccccc3n2C)cc1
6. Cn1c(SCC(=O)Nc2ccc3c(c2)OCCO3)nnc1C1CC1
7. O=C(NC1CCc2ccccc21)c1cc(COc2c(F)cccc2F)on1 (stereo not drawn)

// result
[38.4, 1.3, -1.8, 33.4, -6, 0.2, 0.3]

Provide each entry's inhibition from the list below.
1. O=C1Nc2ccccc2OC1CC(=O)N1CCCC1 (stereo not drawn)
2. COc1cc2ccccc2cc1C(=O)NC(=S)Nc1cc(C(=O)O)ccc1C
3. Cc1cc(C)c(C)c(N=Nc2nc3ccccc3n2C)c1C
4. COc1cc(/C=C2\SC(=Nc3ccc(F)cc3)N(c3ccc(F)cc3)C2=O)ccc1OCC(=O)O
5. Cn1c(N=Nc2ccccc2)nc2ccccc21
6. COc1cc(/C=C2\SC(=S)N(C(C(=O)O)c3ccccc3)C2=O)ccc1O (stereo not drawn)

// result
1: -2.7; 2: 51.6; 3: -5.2; 4: 35.3; 5: 101; 6: 47.4

Provide each entry's inhibition from the list below.
1. CCC(=O)Oc1ccc2c(C)cc(=O)oc2c1C(=O)c1ccccc1
2. O=C(O)C(Cc1ccccc1)N1C(=O)/C(=C/c2ccccc2)SC1=S (stereo not drawn)
3. O=C(Cc1cccs1)N/N=C/c1ccco1
4. COc1cc2ccccc2cc1C(=O)NC(=S)Nc1cccc(C(=O)O)c1

// result
[1.8, 21.1, 5, 58.8]

// query Suppose we examine the molecule "CN(C)c1ccc(/C=C2\CCC/C(=C\c3ccccc3)C2=O)cc1" ; what inhibition value has been reported?
// result 80.8

Numbers sourced from PubChem BioAssay AID1986.
